Readings of protein stability index for the listed variants
B1: RTN2 (parent)
chain: SERPLEDLRLRLDHLGWVARGTGS

- Variants of: B1
- Experiment Description: protein stability index of a GFP-peptide fusion (GPS, HEK-293T) (PSI 1-6); higher = more stable;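 further: lentivirally expressed fusions sorted by FACS into six bins by GFP to DsRed ratio, PSI derived from sequencing read proportions per bin multiplied by bin number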
- Run Parameters: c terminus: a fixed tail appended
Quantity Measured: protein stability index

# Sequence Variant, Assay Value
rows = [
    ("E2L", 1.42),
    ("G23E", 3.99),
    ("R20L", 1.85),
]
